# Test system: adult F. hepatica
# TEST_NAME: In vitro test on adult F. hepatica (viability scale, effective concentration)
# Parameters: species or system Fasciola hepatica
# ASSAY_CONTEXT: Fasciola hepatica; Table 1, formula (I); adult flukes incubated up to 72 h; at least two independent experiments; read-out: Effective in vitro concentration
MEASURED_ENDPOINT: minimal effective concentration (µg/mL)
The answer is to be given in µg/mL; state only the numeric part.

1. FC(F)(F)c1ccc(Oc2cc3[nH]c(C(F)(F)C(F)(F)F)nc3cc2Cl)cc1 [Compound 287]; 50

Pending molecule:
Problem: Any idea what its minimal effective concentration is? The molecule is FC(F)(F)c1ccc(Oc2cc3[nH]c(C(F)(F)F)nc3cc2Cl)cc1 [Compound 286]
Result: 20

---

# Test system: adult F. hepatica
# TEST_NAME: In vitro test on adult F. hepatica (viability scale, effective concentration)
# Set-up: species or system Fasciola hepatica
# ASSAY_CONTEXT: Fasciola hepatica; Table 1, formula (I); adult flukes incubated up to 72 h; at least two independent experiments; read-out: Effective in vitro concentration
// reported minimal effective concentration per item
Response body: numeric value in µg/mL, unit text excluded.

Example results:
1. Fc1ccc(Oc2cc3[nH]c(C(F)(F)F)nc3cc2Cl)c(F)c1; 10
2. FC(F)(F)c1nc2cc(Cl)c(-c3ccc(Cl)cc3C(F)(F)F)cc2[nH]1; 20
3. FC(F)(F)c1nc2cc(Cl)c(Oc3ccc(Cl)cc3Cl)cc2[nH]1; 10
4. FC(F)(F)c1ccc(Oc2cc3[nH]c(C(F)(F)C(F)(F)C(F)(F)F)nc3cc2Cl)cc1; 20
5. FC(F)(F)c1cc(Cl)ccc1-c1cc2[nH]c(C(F)(F)C(F)(F)F)nc2cc1Cl; 20
6. Fc1ccc(-c2cc3[nH]c(C(F)(F)F)nc3cc2Cl)cc1; 20
7. FC(F)(F)c1nc2cc(Cl)c(-c3ccc(Cl)c(Cl)c3)cc2[nH]1; 5
8. FC(F)(F)c1nc2cc(Cl)c(-c3ccc(Cl)cc3Cl)cc2[nH]1; 5

Problem: Lab request: please report minimal effective concentration under test system adult F. hepatica for FC(F)(F)c1cc(Cl)ccc1-c1cc2[nH]c(C(F)(F)C(F)(F)C(F)(F)F)nc2cc1Cl
Result: 20

Problem: Item: FC(F)(F)c1ccc(-c2cc3[nH]c(C(F)(F)C(F)(F)C(F)(F)F)nc3cc2Cl)cc1
Result: 50

---

# Tested on: adult F. hepatica
# TEST_NAME: In vitro test on adult F. hepatica (viability scale, effective concentration)
# Design: species or system Fasciola hepatica
# ASSAY_CONTEXT: Fasciola hepatica; Table 1, formula (I); adult flukes incubated up to 72 h; at least two independent experiments; read-out: Effective in vitro concentration
# Protocol: Representative compounds of formula (I), formula (II), and formula (III) were tested in vitro against F. hepatica as follows. Adult F. hepatica (fluke) were collected from infected bovine livers obtained from a local abattoir (Basel, Switzerland). The worms were quickly washed with 0.9% (w/v) NaCl and placed in 6 or 12-well plates (Costar). […]
MEASURED_ENDPOINT: minimal effective concentration (µg/mL)
Give the value, in units of µg/mL, as a plain number.

Solved entries (count: 3):
1. FC(F)(F)C(F)(F)c1nc2cc(Cl)c(-c3cccc(Cl)c3Cl)cc2[nH]1; 10
2. Fc1ccc(-c2cc3[nH]c(C(F)(F)C(F)(F)F)nc3cc2Cl)cc1; 5
3. FC(F)(F)c1ccc(-c2cc3[nH]c(C(F)(F)C(F)(F)C(F)(F)F)nc3cc2Cl)c(Cl)c1; 20

Kindly consider the entry below.
Problem: So what does the record say about minimal effective concentration for FC(F)(F)c1ccc(-c2cc3[nH]c(C(F)(F)C(F)(F)C(F)(F)F)nc3cc2Cl)c(C(F)(F)F)c1 ?
Result: 20

---

# Tested on: adult F. hepatica
# TEST_NAME: In vitro test on adult F. hepatica (viability scale, effective concentration)
# Design: species or system Fasciola hepatica
# ASSAY_CONTEXT: Fasciola hepatica, 72 h, read-out: Effective in vitro concentration
# Procedure: Representative compounds of formula (I), formula (II), and formula (III) were tested in vitro against F. hepatica as follows. Adult F. hepatica (fluke) were collected from infected bovine livers obtained from a local abattoir (Basel, Switzerland). The worms were quickly washed with 0.9% (w/v) NaCl and placed in 6 or 12-well plates (Costar). […]
// reported minimal effective concentration per item
Form entry: value (µg/mL) — number only.

1) FC(F)(F)C(F)(F)C(F)(F)c1nc2cc(Cl)c(Oc3ccc(Cl)cc3Cl)cc2[nH]1 [Compound 273]; 5

Problem: Which minimal effective concentration value is on record for FC(F)(F)C(F)(F)C(F)(F)c1nc2cc(Cl)c(Oc3cccc(Cl)c3Cl)cc2[nH]1 [Compound 140] ?
Result: 5

Problem: And the next one, FC(F)(F)c1nc2cc(Cl)c(-c3cc(Cl)cc(Cl)c3)cc2[nH]1 [Compound 247] ?
Result: 5

Problem: Can you handle FC(F)(F)c1nc2cc(Cl)c(-c3ccc(Cl)cc3)cc2[nH]1 [Compound 130] next?
Result: 2.5

Problem: Another: FC(F)(F)Sc1nc2cc(Cl)c(-c3ccc(Cl)cc3)cc2[nH]1 [Compound 102]
Result: 5

Problem: Continue with FC(F)(F)c1nc2cc(Cl)c(-c3cc(Cl)cc(Cl)c3Cl)cc2[nH]1 [Compound 261]
Result: 5

---

Measured minimal effective concentration, listed per entry for reference.
# Test system: adult F. hepatica
# TEST_NAME: In vitro test on adult F. hepatica (viability scale, effective concentration)
# Parameters: species or system Fasciola hepatica
# ASSAY_CONTEXT: Fasciola hepatica; Table 1, formula (I); adult flukes incubated up to 72 h; at least two independent experiments; read-out: Effective in vitro concentration
# Description: Representative compounds of formula (I), formula (II), and formula (III) were tested in vitro against F. hepatica as follows. Adult F. hepatica (fluke) were collected from infected bovine livers obtained from a local abattoir (Basel, Switzerland). The worms were quickly washed with 0.9% (w/v) NaCl and placed in 6 or 12-well plates (Costar). […]

1) FC(F)(F)c1ccc(-c2cc3[nH]c(C(F)(F)F)nc3cc2Cl)c(Cl)c1; < 2.5 µg/mL

Problem: minimal effective concentration lookup needed for FC(F)(F)c1ccc(-c2cc3[nH]c(C(F)(F)F)nc3cc2Cl)c(C(F)(F)F)c1 , thanks.
Result: < 10 µg/mL

Problem: Try this molecule next: Fc1ccc(Oc2cc3[nH]c(C(F)(F)C(F)(F)F)nc3cc2Cl)c(F)c1
Result: < 5 µg/mL

---

# Test system: adult F. hepatica
# TEST_NAME: In vitro test on adult F. hepatica (viability scale, effective concentration)
# Design: species or system Fasciola hepatica
# ASSAY_CONTEXT: Fasciola hepatica; Table 1, formula (I); adult flukes incubated up to 72 h; at least two independent experiments; read-out: Effective in vitro concentration
MEASURED_ENDPOINT: minimal effective concentration

Example cases with answers are listed next.
1. FC(F)(F)c1ccc(-c2cc3[nH]c(C(F)(F)C(F)(F)F)nc3cc2Cl)c(Cl)c1; < 10 µg/mL
2. FC(F)(F)c1ccc(-c2cc3[nH]c(C(F)(F)C(F)(F)F)nc3cc2Cl)cc1; < 2.5 µg/mL

Problem: Any idea what its minimal effective concentration is? The molecule is FC(F)(F)c1ccc(Oc2cc3[nH]c(C(F)(F)C(F)(F)F)nc3cc2Cl)c(Cl)c1
Result: < 2.5 µg/mL

Problem: Entry to check: Fc1ccc(Oc2cc3[nH]c(C(F)(F)C(F)(F)F)nc3cc2Cl)cc1
Result: < 2.5 µg/mL

---

# Tested on: adult F. hepatica
# TEST_NAME: In vitro test on adult F. hepatica (viability scale, effective concentration)
# Parameters: species or system Fasciola hepatica
# ASSAY_CONTEXT: Fasciola hepatica, 72 h, read-out: Effective in vitro concentration
Quick reference: minimal effective concentration of the listed items.
Note: unit µg/mL is implicit; provide only the numeric part.

Sample records with minimal effective concentration:
1) FC(F)(F)Sc1nc2cc(Cl)c(-c3cccc(Cl)c3)cc2[nH]1 [Compound 103]; 5
2) Fc1ccc(Oc2cc3[nH]c(C(F)(F)C(F)(F)C(F)(F)F)nc3cc2Cl)cc1 [Compound 284]; 5

Please find the next compound below.
Problem: Enter reported minimal effective concentration observed with adult F. hepatica for FC(F)(F)C(F)(F)C(F)(F)c1nc2cc(Cl)c(-c3ccc(Cl)cc3)cc2[nH]1 [Compound 274]
Result: 5
